The next entries give measured pKi for Metabotropic glutamate receptor 5 (Rattus norvegicus).
pKi: −log10 of the molar value.
Value Type: pKi

Smiles Representation	Value Type	Measurement
N#CCc1cccc(C#Cc2csc(Cl)n2)c1	pKi	8.51
COc1cccc(C#Cc2csc(Br)n2)c1	pKi	7.65
N#Cc1cc(F)cc(C#Cc2csc(F)n2)c1	pKi	9.55
N#Cc1cccc(C#Cc2csc(Cl)n2)c1	pKi	9.57
N#Cc1cc(F)cc(C#Cc2csc(Cl)n2)c1	pKi	9.40
Cc1nc(C#Cc2cc(F)cc(C#N)c2)cs1	pKi	10.10
N#CCc1cccc(C#Cc2csc(N)n2)c1	pKi	8.23
N#Cc1cc(F)cc(C#Cc2csc(I)n2)c1	pKi	8.89
N#CCc1cccc(C#Cc2csc(F)n2)c1	pKi	8.41

Data provenance: ChEMBL document CHEMBL1671821
